Assay: yeast display, Sf9 membrane polyspecificity reagent, FACS + sequencing; frameworks hold sequencing errors
quantity-measured: polyreactivity (PSR sort gate)

Some entries whose results are on file:
[[record]]
residue_sequence = "QVQLVESGGGLVQAGGSLRLSCAASGIILYPNAMVWYRQAPGKERELVAGITRSGVSTYYADSVKGRFTISRDNAKNTVYLQMNSLNPEDTAVYYCAKDRIYGSKGEDDDYWGQGTQVTVSS"
observed_result = "low polyreactivity"

[[record]]
residue_sequence = "QVQLVESGGGLVQAGGSLRLSCAASGSIFGFYAMGLYIQEPGKERELVAAITSGDSTHYADSVKGRFTISRDNAKNTVYLQMNSLKPEDTAVYYCATEYLYVDFFIRYDYWGQGTQVTVSS"
observed_result = "low polyreactivity"

[[record]]
residue_sequence = "QVQLVESGGGLVQAGGSLRLSSAASGFIFFCYTMGWYRQARGKERELVAAISSTGARTYYADSVKGSFTISRDNAKNTVYLQMNSLKPEDTAFYYCAARLSYQGRGYRFWGQGTQVTVSS"
observed_result = "high polyreactivity"

[[record]]
residue_sequence = "QDQHVESGGGLVQAGGSLRLSCSATGRIFTSYVMGWYRQPQGKERQLVAAITRSGGSTYYADSVKVRFTISRDTAKNTVYLQMKSLIPVDTAVYYCNALTRLQIGGEGGGYWGKGTQVTVSS"
observed_result = "high polyreactivity"


GET /values?readout=polyreactivity (PSR sort gate)&item= QVQLVESGGGLVQAGGSLRLSCAASGRIFITNTMGWYRQAPGKERELVAAISRTGGSTYYADSVKGRFTISRDNAKNTVYLQMNSLKPEDTAVYYCNADWYGQLWWGVDYWGQGTQVTVSS
high polyreactivity
